Tested on: differentiated adipocytes
Experiment: Hallmark genes and triglycerides in differentiated adipocytes
Assay type: cell-based, human
Details: Table 28; differentiated adipocytes transfected day nine post-differentiation; 250 nM oligonucleotide
In the oligonucleotide strings, read from the 5' end, every base follows the letter of its sugar. An asterisk marks phosphorothioate; unmarked linkages are phosphodiester. Other units and linkages are bracketed, terminal groups are in braces. A string of capitals states the bases alone. e = 2'-O-(2-methoxyethyl) (MOE); [5mC] = 5-methylcytosine; d = 2'-deoxy (DNA)
experimental.endpoint: HSL

Given 327889 (antisense eG*eT*eG*eG*eT*eA*eA*eT*e[5mC]*e[5mC]*e[5mC]*eT*eG*eG*e[5mC]*eA*eA*eT*eG*eT*eG*eA*eT) [compound 327889] , state its recorded HSL. 0.77

Given 327888 (antisense eA*eA*eT*eG*e[5mC]*e[5mC]*e[5mC]*e[5mC]*eT*eA*eA*eA*eA*eA*eT*e[5mC]*e[5mC]*eT*eT*eA*eT) [compound 327888] , state its recorded HSL. 0.84

Given 327905 (antisense e[5mC]*eA*eG*eA*e[5mC]*eT*e[5mC]*e[5mC]*eG*eG*eT*eG*eG*eA*eA*eT*eG*eA*eA*eG*eG*eA) [compound 327905] , state its recorded HSL. 0.65

Given 327876 (antisense eA*eA*e[5mC]*eA*e[5mC]*eT*eG*eA*eT*eT*eT*e[5mC]*eA*eA*eA*eT*eG*eG*eT*eG*e[5mC]*eT*eA) [compound 327876] , state its recorded HSL. 0.81

Given 327890 (antisense eA*eG*e[5mC]*eA*e[5mC]*eA*eA*eA*e[5mC]*eT*eA*e[5mC]*eT*eA*e[5mC]*e[5mC]*eT*e[5mC]*eA) [compound 327890] , state its recorded HSL. 0.42

Given 327880 (antisense eA*e[5mC]*eA*eA*eA*eT*eT*e[5mC]*eG*eG*eT*eT*e[5mC]*eT*eA*e[5mC]*eA*eG*eG*eG*eT*eA) [compound 327880] , state its recorded HSL. 0.93

Given 327892 (antisense eA*e[5mC]*eT*eT*eT*e[5mC]*eG*eG*eT*eT*eA*eT*e[5mC]*eT*eA*eG*e[5mC]*eT*eT*eT*eA) [compound 327892] , state its recorded HSL. 0.62

Given 327941 (antisense eA*eA*e[5mC]*e[5mC]*e[5mC]*eA*e[5mC]*e[5mC]*eG*eA*e[5mC]*eA*eG*e[5mC]*eA*eA*eT*eG*eA*eA*eT*eG*eT*eT) [compound 327941] , state its recorded HSL. 1.17

Given 340927 (antisense eT*eG*eA*eG*e[5mC]*dT*dA*d[5mC]*dA*dG*dT*dG*d[5mC]*dT*dT*e[5mC]*eA*eT*e[5mC]*eT*e[5mC]*eA) [compound 340927] , state its recorded HSL. 0.64

Given 327954 (antisense eA*e[5mC]*eA*eA*eA*eG*eT*eT*e[5mC]*eT*eG*eT*eG*eA*eT*eG*e[5mC]*eA*e[5mC]*eT*eG*eA) [compound 327954] , state its recorded HSL. 1.35

Given 338664 (antisense e[5mC]*eA*eG*eA*e[5mC]*eT*e[5mC]*e[5mC]*e[5mC]*eA*eA*e[5mC]*eT*eG*eA*e[5mC]*e[5mC]*eA*eG*eA) [compound 338664] , state its recorded HSL. 1.01
